Each entry below carries its recorded T/C.
- Tested on: P388 leukemia ip, CD2F1 mice, survival T/C
- assay_method_text: NCI In Vivo Anticancer Drug Screen. Data for tumor model P388 Leukemia (intraperitoneal) in CD2F1 (CDF1) mice
- study_conditions: endpoint: median survival time; dose: 12.5 mg/kg/injection; schedule: Q01DX005 (ip); vehicle: Klucel (hydroxypropylcellulose) (HPC); higher = longer survival
Toxic doses and inconclusive results are not listed.

Check out these entries, answers already filled in.
INSERT INTO results (compound, measured_property, result) VALUES
  ('C#CC(C)C(C(C)=O)C(=O)c1ccccc1.[C-]#[O+].[C-]#[O+].[C-]#[O+].[C-]#[O+].[C-]#[O+].[C-]#[O+].[Co].[Co] (stereo not given)', 'T/C', '108 % of control'),
  ('O=C1NC(=O)/C(=C\c2ccccc2)C2=C1CCCC2', 'T/C', '103 % of control'),
  ('NC(CCCCNC(=S)S)C(=O)O.[Na+].[Zn+2] (stereo not given)', 'T/C', '102 % of control'),
  ('C1CCC2C(C1)CCC1COCN12 (stereo not given)', 'T/C', '98 % of control');

[Q] May I ask what T/C has been recorded for Cc1nc2ccccc2c(=O)n1/N=C1/C(=O)Nc2ccc(Br)cc21 ?
[A] 96 % of control

[Q] May I ask what T/C has been recorded for CC1=C(C(N)=O)C(c2ccccc2)NC(=S)N1 (stereo not given) ?
[A] 100 % of control

[Q] May I ask what T/C has been recorded for CC(/C=C/c1ccccc1)=N\NC(=O)c1ccccc1 ?
[A] 97 % of control

[Q] May I ask what T/C has been recorded for CNCC1c2ccccc2CSc2c(OC)cccc21 (stereo not given) ?
[A] 98 % of control

[Q] May I ask what T/C has been recorded for CC(C)NCCCNCC(=O)Nc1ccc(S(=O)(=O)c2ccc(NC(=O)CNCCCNC(C)C)cc2)cc1 ?
[A] 104 % of control

[Q] May I ask what T/C has been recorded for Nc1ccc(S(=O)(=O)c2ccc(N)cc2)cc1 ?
[A] 98 % of control

* * *

- Test system: P388 leukemia ip, CD2F1 mice, survival T/C
- assay_method_text: NCI In Vivo Anticancer Drug Screen. Data for tumor model P388 Leukemia (intraperitoneal) in CD2F1 (CDF1) mice
- study_conditions: endpoint: median survival time; dose: 400.0 mg/kg/injection; schedule: Q04DX003 (ip); vehicle: saline with Tween-80; higher = longer survival
Toxic doses and inconclusive results are not listed.
Each entry below carries its recorded T/C.

INSERT INTO results (compound, target_of_assay, result) VALUES
  ('CCOC(=O)C(=Cc1c[nH]c2ccc(Br)cc12)C(=O)OCC', 'P388 leukemia ip, CD2F1 mice, survival T/C', '100 % of control');

[Q] May I ask what T/C has been recorded for CCOC(=O)[C@]12CCC[C@@]1(O)NC(=O)c1cnccc12 ?
[A] 93 % of control

[Q] May I ask what T/C has been recorded for Nc1[nH]nc2nc(-c3ccccc3)cnc12 ?
[A] 90 % of control

[Q] May I ask what T/C has been recorded for CCSC/C(=N\Nc1ccc([N+](=O)[O-])cc1[N+](=O)[O-])c1ccccc1 ?
[A] 90 % of control

[Q] May I ask what T/C has been recorded for CC(=O)n1ccc(=O)[nH]c1=O ?
[A] 96 % of control

[Q] May I ask what T/C has been recorded for O=C1CN(C2CC2N2CC(=O)NC(=O)C2)CC(=O)N1 (stereo unspecified) ?
[A] 100 % of control

The measured values listed here are drawn from PubChem BioAssay AID330.
